# Measured On: XIAP BIR2-3 (Homo sapiens, UniProt P98170, C202A/C213G)
# Construct: His-BIR2-3 (125-356, C202A/C213G, XIAP)
# Sequence (P98170 125-356 C202A/C213G): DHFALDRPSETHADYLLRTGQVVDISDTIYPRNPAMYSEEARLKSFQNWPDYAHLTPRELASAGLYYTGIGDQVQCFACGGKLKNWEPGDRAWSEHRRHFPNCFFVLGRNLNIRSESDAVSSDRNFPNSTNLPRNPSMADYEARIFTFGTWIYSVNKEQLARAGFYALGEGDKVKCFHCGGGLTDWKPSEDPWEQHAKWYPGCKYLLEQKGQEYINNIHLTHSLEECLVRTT
# Method: XIAP-BIR2-3 dimeric SMAC Peptide Homogeneous Time Resolved Fluorescence (HTRF) Assay
# Assay type: binding
# Condition Set: 0.5 nM N-His-BIR2-3 (125-356, C202A/C213G, XIAP), 20 nM fluorescein labeled dimeric SMAC peptide; HTRF signal; read-out: XIAP BIR2-3 IC50
pIC50: −log10 of the molar value.
Parameter: pIC50

Reference set (6 entries):
# Molecule, pIC50
records = [
    ("CN[C@@H](C)C(=O)N[C@H](C(=O)N1Cc2cc([C@H]3C[C@@H](C(=O)N[C@@H]4CCCc5ccccc54)N(C(=O)[C@@H](NC(=O)[C@H](C)NC)C(C)(C)C)C3)ccc2C[C@H]1C(=O)N[C@H](COCCO)Cc1ccccc1)C(C)(C)C", 7.76),
    ("CN[C@@H](C)C(=O)N[C@H](C(=O)N1C[C@@H](c2ccc3c(c2)CN(C(=O)[C@@H](NC(=O)[C@H](C)NC)C(C)(C)C)[C@H](C(=O)N[C@@H]2CCCc4ccccc42)C3)C[C@H]1C(=O)N[C@@H](Cc1ccccc1)c1ncc(C)o1)C(C)(C)C", 8.59),
    ("CN[C@@H](C)C(=O)N[C@H](C(=O)N1C[C@@H](c2ccc3c(c2)CN(C(=O)[C@@H](NC(=O)[C@H](C)NC)C(C)(C)C)[C@H](C(=O)N[C@@H]2CCCc4ccccc42)C3)C[C@H]1C(=O)N[C@@H](Cc1ccccc1)c1nnn[nH]1)C(C)(C)C", 8.55),
    ("CN[C@@H](C)C(=O)N[C@H](C(=O)N1C[C@@H](c2ccc3c(c2)CN(C(=O)[C@@H](NC(=O)[C@H](C)NC)C(C)(C)SCC(=O)NCCO)[C@H](C(=O)N[C@@H]2CCCc4ccccc42)C3)C[C@H]1C(=O)N[C@@H]1CCCc2ccccc21)C(C)(C)C", 9.10),
    ("CN[C@@H](C)C(=O)N[C@H](C(=O)N1Cc2cc(C3C[C@@H](C(=O)N[C@H](CO)Cc4ccccc4)N(C(=O)[C@@H](NC(=O)[C@H](C)NC)C(C)(C)C)C3)ccc2C[C@H]1C(=O)NC1CCCc2ccccc21)C(C)(C)C (stereo in doubt)", 8.59),
    ("CN[C@@H](C)C(=O)N[C@H](C(=O)N1C[C@@H](c2ccc3c(c2)CN(C(=O)[C@@H](NC(=O)[C@H](C)NC)C(C)(C)C)[C@H](C(=O)N[C@@H]2CCOc4ccccc42)C3)C[C@H]1C(=O)N[C@@H]1CCCc2ccccc21)C(C)(C)C", 8.77),
]

P: CCC(CC)[C@H](NC(=O)[C@H](C)NC)C(=O)N1Cc2cc(C(=O)N[C@H]3C[C@@H](C(=O)N[C@@H]4CCCc5ccccc54)N(C(=O)[C@@H](NC(=O)[C@H](C)NC)C(C)(C)C)C3)ccc2C[C@H]1C(=O)N[C@@H]1CCCc2ccccc21
Q: CN[C@@H](C)C(=O)N[C@H](C(=O)N1Cc2cc(C(=O)N[C@H]3C[C@@H](C(=O)N[C@@H]4CCCc5ccccc54)N(C(=O)[C@@H](NC(=O)[C@H](C)NC)C(C)(C)C)C3)ccc2C[C@H]1C(=O)N[C@@H]1CCCc2ccccc21)[C@@H](C)OC
Query :: Of P and Q , which one carries the higher reported pIC50? Pick one and reply with its label.
Result :: P
(P: 8.70, Q: 8.22)
